molecular target: FcγRIIA (Homo sapiens, UniProt P12318); test: Binding of the linker peptide alone; conditions: source not stated
Sequence (P12318 34-317): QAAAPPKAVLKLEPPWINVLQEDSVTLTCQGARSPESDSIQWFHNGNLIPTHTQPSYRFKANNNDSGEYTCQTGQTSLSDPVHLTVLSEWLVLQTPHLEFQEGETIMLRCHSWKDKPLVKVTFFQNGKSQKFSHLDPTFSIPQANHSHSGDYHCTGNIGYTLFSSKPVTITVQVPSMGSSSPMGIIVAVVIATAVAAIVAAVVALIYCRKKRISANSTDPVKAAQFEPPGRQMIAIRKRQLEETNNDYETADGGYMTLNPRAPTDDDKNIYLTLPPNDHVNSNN
No end group written: not given here.
Value kind: pKd
FYI, pKd means -log10 of a concentration in mol per litre.

input: # input sequence: WAWVWLTETAV [FcγRIIA binding peptide, reference compound] ; wanted: its pKd
output: 6.30

* * *

system: human platelets; format: cell-based
No end group written: not given here.
Value kind: IC50 (µM)
Answer in µM, number only, no unit symbol.

input: Param item = WAWVWLTETAV [FcγRIIA binding peptide, reference compound] ; retrieve measured IC50.
output: 55
